System: Human immunodeficiency virus 1
Experiment: Inhibition of HIV1 reverse transcriptase at 200 ug/mL
Kind request: treat 80% as inclusive, so inhibition at 80% or higher is condition met, anything lower is condition not met.

Q: Does inhibition meet or surpass 80% for O=[N+]([O-])/C=C/c1ccccc1 ?
Ans: condition met

Q: And the next one, CC(=O)N/C=C/c1cccc2ccccc12 ?
Ans: condition not met

Q: And the next one, CC(=O)N/C=C/c1ccccc1 ?
Ans: condition not met

Q: And the next one, O=[N+]([O-])/C=C/c1ccco1 ?
Ans: condition met

Q: And the next one, Cc1cc(C)c(/C=C/[N+](=O)[O-])cc1C ?
Ans: condition not met

Q: And the next one, O=[N+]([O-])/C=C/c1ccccc1Cl ?
Ans: condition met

Q: And the next one, O=[N+]([O-])/C=C/c1ccc(F)cc1 ?
Ans: condition not met

Q: And the next one, CC(=O)N/C=C/c1ccc(C)cc1 ?
Ans: condition not met

Q: And the next one, Cc1ccc(/C=C/[N+](=O)[O-])cc1 ?
Ans: condition not met

Q: And the next one, CC(=O)N/C=C/c1ccccc1Br ?
Ans: condition not met

Q: And the next one, O=[N+]([O-])/C=C/c1ccc(Br)cc1 ?
Ans: condition not met

Q: And the next one, CC(=O)N/C=C/c1cc(C)c(C)cc1C ?
Ans: condition not met

Q: And the next one, O=[N+]([O-])/C=C/c1ccc(O)cc1 ?
Ans: condition met

Q: And the next one, CC(=O)N/C=C/c1ccccc1C ?
Ans: condition not met

Q: And the next one, CC(=O)N/C=C/c1cccc(Cl)c1 ?
Ans: condition not met

###

Assay: Inhibition of HIV1 reverse transcriptase
Parameters: species or system Human immunodeficiency virus 1
Readout name: log10 of IC50 (log10 of the value in µM)
Answers are given as log10 of IC50 in µM.

Solved entries (count: 2):
Q: Could you tell me which log10 of IC50 is on file for CC(=O)N(C)/C=C/c1ccccc1Br ?
Ans: 2.53

Q: And the next one, O=[N+]([O-])/C=C/c1ccccc1 ?
Ans: 1.94

Consider the following items and state reported log10 of IC50 for each.
1. O=[N+]([O-])/C=C/c1ccc(O)cc1
2. O=C(O)P(=O)(O)O
3. CC(=O)N(C)/C=C/c1ccccc1F
4. COc1ccccc1/C=C/[N+](=O)[O-]
5. O=[N+]([O-])/C=C/c1ccccc1F

Ans:
1. 2.74
2. 0.11
3. 2.68
4. 2.35
5. 2.56

###

Test: Cytotoxicity in human C8166 cells
Type: cell-based
Readout name: CC50
The number alone won't do; follow it with the unit.

Q: Could you tell me which CC50 is on file for CC(=O)N/C=C/c1ccccc1C ?
Ans: 385 µM

Q: And the next one, CC(=O)N(C)/C=C/c1ccccc1F ?
Ans: 667 µM

Turning now to a further record.
Q: Could you tell me which CC50 is on file for O=[N+]([O-])/C=C/c1ccc(O)cc1 ?
Ans: 15.8 µM

###

Assay: Therapeutic index, Ratio of CC50 for human C8166 cells to EC50 for HIV1
Assay type: cell-based
Settings: read-out: TI
Readout name: selectivity ratio

Solved entries (count: 2):
Q: Could you tell me which selectivity ratio is on file for CC(=O)N/C=C/c1ccccc1F ?
Ans: < 1

Q: And the next one, CC(=O)N(C)/C=C/c1ccccc1Br ?
Ans: > 13.2

Turning now to a further record.
Q: Could you tell me which selectivity ratio is on file for Cc1cn([C@H]2C[C@H](N=[N+]=[N-])[C@@H](CO)O2)c(=O)[nH]c1=O ?
Ans: > 471000
